Target: purified HLA DRB4*0101 (human)
Assay: competition with 125I-labelled reference peptide, purified HLA
OBSERVABLE: IC50 (µM)
Respond numerically; units are µM and should not be typed.

In: Fill in the blank: the reported IC50 of AKSMEYDAVATTHSW (modifications not checked) [Flu.PB1.655] is ____.
Out: 6.34
